Each recorded value in this set is attributed to paper PMC8161055.

List of inhibition at 200 µM values.
Biological target: α-glucosidase (Saccharomyces cerevisiae)
Construct: purchased Sigma-Aldrich, Munich, Germany
Sequence (P53341 whole entry): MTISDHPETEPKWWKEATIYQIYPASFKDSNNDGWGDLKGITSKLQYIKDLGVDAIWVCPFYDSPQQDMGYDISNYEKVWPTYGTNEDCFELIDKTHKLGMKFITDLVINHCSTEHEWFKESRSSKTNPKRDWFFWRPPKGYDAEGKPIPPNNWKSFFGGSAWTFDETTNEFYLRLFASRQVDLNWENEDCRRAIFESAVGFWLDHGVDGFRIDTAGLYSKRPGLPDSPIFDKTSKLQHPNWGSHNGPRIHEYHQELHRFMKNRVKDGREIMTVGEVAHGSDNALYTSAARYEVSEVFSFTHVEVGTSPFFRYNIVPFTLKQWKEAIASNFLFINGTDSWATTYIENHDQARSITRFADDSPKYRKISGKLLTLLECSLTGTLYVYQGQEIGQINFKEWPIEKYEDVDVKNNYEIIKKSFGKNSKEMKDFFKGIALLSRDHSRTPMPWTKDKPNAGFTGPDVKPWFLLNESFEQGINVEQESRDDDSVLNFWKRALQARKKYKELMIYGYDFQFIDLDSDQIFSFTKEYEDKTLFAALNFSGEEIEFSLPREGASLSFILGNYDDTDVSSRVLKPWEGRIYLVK
Test: biochemical
Assay type: biochemical
Conditions: read-out: Inhibitions (%)
Report the figure in % without appending any unit label.

{"compound": "O=C(CN1C(C(=O)c2ccccc2)=C(O)c2ccccc2S1(=O)=O)Nc1ccc(Cl)cc1 [Compound 11c]", "parameter-measured": "inhibition at 200 µM", "unit-text": "%", "obs-value": 79}
{"compound": "O=C(CN1C(C(=O)c2ccccc2)=C(O)c2ccccc2S1(=O)=O)Nc1ccc(Br)cc1 [Compound 11k]", "parameter-measured": "inhibition at 200 µM", "unit-text": "%", "obs-value": 13}
{"compound": "O=C(CN1C(C(=O)c2ccc(Br)cc2)=C(O)c2ccccc2S1(=O)=O)Nc1cccc(Cl)c1 [Compound 12b]", "parameter-measured": "inhibition at 200 µM", "unit-text": "%", "obs-value": 47}
{"compound": "O=C(C1=C(O)c2ccccc2S(=O)(=O)N1)c1ccccc1", "parameter-measured": "inhibition at 200 µM", "unit-text": "%", "obs-value": 20}
{"compound": "O=C(CN1C(C(=O)c2ccccc2)=C(O)c2ccccc2S1(=O)=O)Nc1ccccc1Cl [Compound 11a]", "parameter-measured": "inhibition at 200 µM", "unit-text": "%", "obs-value": 39}
{"compound": "COc1ccccc1NC(=O)CN1C(C(=O)c2ccccc2)=C(O)c2ccccc2S1(=O)=O [Compound 11l]", "parameter-measured": "inhibition at 200 µM", "unit-text": "%", "obs-value": 54}
{"compound": "O=C(CN1C(C(=O)c2ccc(Br)cc2)=C(O)c2ccccc2S1(=O)=O)Nc1ccccc1[N+](=O)[O-] [Compound 12g]", "parameter-measured": "inhibition at 200 µM", "unit-text": "%", "obs-value": 76}

Documented inhibition at 200 µM of O=C(CN1C(C(=O)c2ccccc2)=C(O)c2ccccc2S1(=O)=O)Nc1cccc(Br)c1 [Compound 11j] : 50
